All values here come from patent US11591366B2.

# Plasma half-life per record follows
- Test: Plasma stability assay
- Type: in vitro ADME
- Cond: rat plasma at 37° C.; 24 h is the longest time tested
Please give a number only; it is taken to be in h.

[
  {
    "Compound": "CCC(C)[C@H](NC(=O)[C@@H]1Cc2ccc(O)c(c2)CC=CCNCCCCCC(=O)N[C@@H](CCCCN)C(=O)N2CCC[C@H]2C(=O)N1)C(=O)N[C@@H](CC(C)C)C(=O)O (stereo partly shown) [Compound 6, c[aminohex-6-enoic acid(All)KPY(All)]IL]",
    "Observed measurement": 24
  },
  {
    "Compound": "CCC(C)[C@H](NC(=O)[C@@H]1Cc2ccc(O)c(c2)CC=CCCCCCC[C@](C)(N)C(=O)N[C@@H](CCCCN)C(=O)N2CCC[C@H]2C(=O)N1)C(=O)N[C@@H](CC(C)C)C(=O)O (stereo partly shown) [Compound 3, c[OctenylAKPY(All)]IL]",
    "Observed measurement": 24
  },
  {
    "Compound": "CCC(C)[C@H](NC(=O)[C@@H]1Cc2ccc(O)c(c2)CC=CCNCCCC[C@@H](N)C(=O)N[C@@H](CCCCN)C(=O)N2CCC[C@H]2C(=O)N1)C(=O)N[C@@H](CC(C)C)C(=O)O (stereo partly shown) [Compound 4, c[K(All)KPY(All)]IL]",
    "Observed measurement": 24
  }
]

Pending compound:
Note to self: Plasma half-life recorded for C=CCNCCCC[C@H](N)C(=O)N[C@@H](CCCCN)C(=O)N1CCC[C@H]1C(=O)N[C@@H](Cc1ccc(O)c(CC=C)c1)C(=O)N[C@H](C(=O)N[C@@H](CC(C)C)C(=O)O)C(C)CC (stereo partly shown) was 4
